Measured % Stimulation (maximum, adiponectin secretion), listed per entry for reference.
# Tested on: adiponectin secretion in LPS/3T3-L1 adipocytes
# TEST_NAME: Adiponectin secretion in the lipopolysaccharide/3T3-L1 adipocyte model (Example 26)
# CONDITIONS_USED: 100 ng LPS/ml; NS = not significantly different from the LPS control
MEASUREMENT_NAME: % Stimulation (maximum, adiponectin secretion) (%)

>>> print(df.to_string())
                                   compound                                    system  observed_result
0  COc1ccc2c(c1)c(CC(=O)O)c(C)n2C(=O)c1ccc(Cl)cc1  adiponectin secretion in LPS/3T3-L1 adipocytes                9
1  CC(C)Cc1ccc(C(C)C(=O)O)cc1 (stereo not drawn)  adiponectin secretion in LPS/3T3-L1 adipocytes               22
2  Cc1c(C)c2c(c(C)c1O)CCC(C)(COc1ccc(CC3SC(=O)NC3=O)cc1)O2 (stereo not drawn)  adiponectin secretion in LPS/3T3-L1 adipocytes               15
3  CCc1ccc(CCOc2ccc(CC3SC(=O)NC3=O)cc2)nc1 (stereo not drawn)  adiponectin secretion in LPS/3T3-L1 adipocytes               12
